Test target: UniProt:Q01726
Sequence (Q01726 whole entry): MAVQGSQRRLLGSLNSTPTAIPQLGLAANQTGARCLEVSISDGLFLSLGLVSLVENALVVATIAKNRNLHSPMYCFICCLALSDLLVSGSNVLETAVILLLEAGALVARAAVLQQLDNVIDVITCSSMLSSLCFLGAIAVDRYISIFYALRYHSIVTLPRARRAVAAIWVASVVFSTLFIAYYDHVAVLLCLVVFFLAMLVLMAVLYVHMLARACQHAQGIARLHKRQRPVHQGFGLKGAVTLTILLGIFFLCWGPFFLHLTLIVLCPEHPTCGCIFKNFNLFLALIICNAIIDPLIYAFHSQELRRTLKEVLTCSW
Procedure summary: Functional assay for agonist activity at hMC1-R
Format: cell-based
Experimental context: intrinsic activity
Assay endpoint: Emax (%)

Compound structure | Test target | Assay endpoint | Reported measurement
CC(=O)N[C@H](CCCNC(=N)N)C(=O)N[C@H]1CCCNC(=O)CC[C@@H](C(N)=O)NC(=O)[C@H](Cc2c[nH]c3ccccc23)NC(=O)[C@H](CCCNC(=N)N)NC(=O)[C@@H](Cc2ccccc2)NC(=O)[C@H](CCC(N)=O)NC1=O | UniProt:Q01726 | Emax | 85
CC(=O)N[C@@H](CCCNC(=N)N)C(=O)N[C@H]1CCC(=O)NCCC[C@@H](C(N)=O)NC(=O)[C@H](Cc2c[nH]c3ccccc23)NC(=O)[C@H](CCCNC(=N)N)NC(=O)[C@@H](Cc2ccccc2)NC(=O)[C@H](CC(N)=O)NC1=O | UniProt:Q01726 | Emax | 85
CC(=O)N[C@@H](CCCNC(=N)N)C(=O)N[C@H]1CCCNC(=O)CC[C@@H](C(N)=O)NC(=O)[C@H](Cc2c[nH]c3ccccc23)NC(=O)[C@H](CCCNC(=N)N)NC(=O)[C@@H](Cc2ccccc2)NC(=O)[C@H](CCC(N)=O)NC1=O | UniProt:Q01726 | Emax | 89
CC(=O)N[C@@H](CCCNC(=N)N)C(=O)N[C@H]1CCCNC(=O)CC[C@@H](C(N)=O)NC(=O)[C@H](Cc2c[nH]c3ccccc23)NC(=O)[C@H](CCCNC(=N)N)NC(=O)[C@@H](Cc2ccccc2)NC(=O)[C@H](CC(N)=O)NC1=O | UniProt:Q01726 | Emax | 87

---

Test target: hMC4-R (Homo sapiens (Human), UniProt P32245)
Sequence (P32245 whole entry): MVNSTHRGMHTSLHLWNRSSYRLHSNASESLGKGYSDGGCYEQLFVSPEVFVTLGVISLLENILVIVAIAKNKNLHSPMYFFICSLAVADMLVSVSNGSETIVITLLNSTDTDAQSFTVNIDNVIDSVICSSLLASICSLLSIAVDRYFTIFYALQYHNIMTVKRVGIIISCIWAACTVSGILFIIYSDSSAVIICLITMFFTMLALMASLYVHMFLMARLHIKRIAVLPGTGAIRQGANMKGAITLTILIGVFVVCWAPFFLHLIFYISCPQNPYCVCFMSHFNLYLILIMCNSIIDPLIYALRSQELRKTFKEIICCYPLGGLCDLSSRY
Procedure summary: Assay for agonist activity (cAMP accumulation in HEK-293 cells)
Type: cell-based
Experimental context: HEK293; NDP-α-MSH is 100%; read-out: intrinsic activity at MC4-R
Assay endpoint: Emax (%)

Compound | Test target | Emax [%]
CC(=O)N[C@@H](CCCNC(=N)N)C(=O)N[C@H]1CCCC(=O)NCC[C@@H](C(N)=O)NC(=O)[C@H](Cc2c[nH]c3ccccc23)NC(=O)[C@H](CCCNC(=N)N)NC(=O)[C@@H](Cc2ccccc2)NC(=O)[C@H](Cc2c[nH]cn2)NC1=O | hMC4-R (Homo sapiens (Human), UniProt P32245) | 101
CC(=O)N[C@@H](CCCNC(=N)N)C(=O)N[C@H]1CCCC(=O)NCC[C@@H](C(N)=O)NC(=O)[C@H](Cc2c[nH]c3ccccc23)NC(=O)[C@H](CCCNC(=N)N)NC(=O)[C@@H](Cc2ccccc2)NC(=O)[C@H](CCN)NC1=O | hMC4-R (Homo sapiens (Human), UniProt P32245) | 98
CC(=O)N[C@@H](CCCNC(=N)N)C(=O)N[C@H]1CCNC(=O)CCC[C@@H](C(N)=O)NC(=O)[C@H](Cc2c[nH]c3ccccc23)NC(=O)[C@H](CCCNC(=N)N)NC(=O)[C@@H](Cc2ccccc2)NC(=O)[C@H](CCN)NC1=O | hMC4-R (Homo sapiens (Human), UniProt P32245) | 96
CC(=O)N[C@@H](CCCNC(=N)N)C(=O)N[C@H]1CCNC(=O)CCC[C@@H](C(N)=O)NC(=O)[C@H](Cc2c[nH]c3ccccc23)NC(=O)[C@H](CCCNC(=N)N)NC(=O)[C@@H](Cc2ccccc2)NC(=O)[C@H](Cc2c[nH]cn2)NC1=O | hMC4-R (Homo sapiens (Human), UniProt P32245) | 95
CC(=O)N[C@@H](CCCNC(=N)N)C(=O)N[C@H]1CC(=O)NCCCC[C@@H](C(N)=O)NC(=O)[C@H](Cc2c[nH]c3ccccc23)NC(=O)[C@H](CCCNC(=N)N)NC(=O)[C@@H](Cc2ccccc2)NC(=O)[C@H](Cc2c[nH]cn2)NC1=O [Peptide No. 1] | hMC4-R (Homo sapiens (Human), UniProt P32245) | 91
